biological target: PD-1/PD-L1 (Homo sapiens); test: PD-1/PD-L1 biochemical protein-protein interaction assay (ALPHA); details: 0.3 nM His tagged PD-L1, 2.5 nM biotinylated Fc-PD-1, 60 minutes at 25° C., read-out: IC50 PD-L1-PD-1 Alpha IC50-mono PD-L1-fcP-D1
Sequence (Q9NZQ7 19-238 limits assumed): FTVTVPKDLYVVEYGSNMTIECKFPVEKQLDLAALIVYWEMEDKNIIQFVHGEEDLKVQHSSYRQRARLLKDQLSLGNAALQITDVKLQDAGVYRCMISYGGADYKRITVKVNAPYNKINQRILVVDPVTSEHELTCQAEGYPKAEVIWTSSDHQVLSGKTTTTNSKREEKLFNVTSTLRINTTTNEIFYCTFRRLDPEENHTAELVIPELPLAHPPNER
measuredQuantity: pIC50
pIC50 field: float, defined as -log10 of concentration (mol/L).

IN: If you can, please state the reported pIC50 value of Cc1c(COc2cc(OCc3cncc(C#N)c3)c(CNC[C@@H](O)CC(=O)O)cc2Cl)cccc1-c1cccc2c1CCN2C(=O)c1ccc(CNC[C@@H](O)CC(=O)O)c(OCc2cncc(C#N)c2)c1 .
OUT: 9.70

IN: If you can, please state the reported pIC50 value of Cc1c(COc2cc(OCc3cncc(C#N)c3)c(CNC[C@H](O)CC(=O)O)cc2Cl)cccc1-c1cccc(COc2cc(OCc3cncc(C#N)c3)c(CNC[C@H](O)CC(=O)O)cc2Cl)c1C .
OUT: 9.70

IN: If you can, please state the reported pIC50 value of Cc1c(COc2cc(OCc3cncc(C#N)c3)c(CN[C@@](C)(CO)C(=O)O)cc2Cl)cccc1-c1cccc(-c2ccc(CC3CCCN3)cc2)c1C (stereo partly drawn) .
OUT: 9.29

* * *

target: PD-1/PD-L1 (Homo sapiens); assay: PD-1/PD-L1 biochemical protein-protein interaction assay (ALPHA); format: binding; details: 0.3 nM His tagged PD-L1, 2.5 nM biotinylated Fc-PD-1, 60 minutes at 25° C., read-out: IC50 PD-L1-PD-1 Alpha IC50-mono PD-L1-fcP-D1
measuredQuantity: pIC50
pIC50 field: float, defined as -log10 of concentration (mol/L).

IN: Fill in the recorded pIC50 for this compound, with PD-1/PD-L1 (Homo sapiens) as test system: Cc1c(COc2cc(OCc3cncc(C#N)c3)c(CN[C@@H]3CCC[C@@H]3O)cc2Cl)cccc1-c1cccc(-c2ccc3c(c2)CCC3N2CC[C@H](CC(=O)O)C2)c1C (stereo partly drawn) [Example 584]
OUT: 9.91

IN: Fill in the recorded pIC50 for this compound, with PD-1/PD-L1 (Homo sapiens) as test system: COc1nc(O[C@H]2CCc3c(-c4cccc(-c5ccc(CNC[C@@H]6CCC(=O)N6)cc5)c4Cl)cccc32)c(Cl)cc1CN1CC(O)C1 [Example 720]
OUT: 9.58

IN: Fill in the recorded pIC50 for this compound, with PD-1/PD-L1 (Homo sapiens) as test system: Cc1c(COc2cc(OCc3cncc(C#N)c3)c(CNC(CO)CO)cc2Cl)cccc1-c1cccc(COc2cc(OCc3cncc(C#N)c3)c(CNC(CO)CO)cc2Cl)c1C [Example 281]
OUT: 8.06

* * *

biological target: interaction between the recombinant extracellular domain (ECD) of PD-1 and native cell-bound PD-L1 (Homo sapiens, UniProt Q9NZQ7); test: CHO/PD-L1 cell capture assay; details: CHO cells overexpressing PD-L1, pre-incubated 1 hr with compound, captured on biotinylated Fc-PD-1 coated plates, 75 min at room temperature
Sequence (Q9NZQ7 19-290): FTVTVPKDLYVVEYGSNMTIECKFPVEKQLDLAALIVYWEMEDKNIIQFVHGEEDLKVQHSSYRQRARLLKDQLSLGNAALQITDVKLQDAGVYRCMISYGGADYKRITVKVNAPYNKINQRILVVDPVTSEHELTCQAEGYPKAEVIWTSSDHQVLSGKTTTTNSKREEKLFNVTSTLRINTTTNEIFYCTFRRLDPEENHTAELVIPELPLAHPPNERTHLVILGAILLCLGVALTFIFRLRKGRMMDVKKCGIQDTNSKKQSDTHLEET
measuredQuantity: EC50 (nM)
Numbers only here, please. The scale is nM.

IN: If you can, please state the reported EC50 value of Cc1c(COc2nc(OCCc3cncnc3)c(CNC[C@@H](O)CC(=O)O)cc2Br)cccc1-c1cccc(COc2nc(OCCc3cncnc3)c(CNC[C@@H](O)CC(=O)O)cc2Br)c1C .
OUT: 68.6

IN: If you can, please state the reported EC50 value of Cc1c(COc2nc(OC[C@@H]3CCC(=O)N3)c(CNCC(=O)O)cc2Br)cccc1-c1cccc(COc2nc(OC[C@@H]3CCC(=O)N3)c(CNCC(=O)O)cc2Br)c1C .
OUT: 123

IN: If you can, please state the reported EC50 value of COc1nc(OCc2cccc(-c3cccc(COc4nc(OC)c(CN[C@H](C)[C@@H](O)CC(=O)O)cc4Cl)c3C)c2C)c(Cl)cc1CN[C@H](C)[C@@H](O)CC(=O)O .
OUT: 91.4

IN: If you can, please state the reported EC50 value of COc1cc(OCc2cccc(-c3cccc(COc4cc(OCc5cncc(C#N)c5)c(CNCC(=O)O)cc4Cl)c3C)c2C)c(Cl)cc1CNCC(=O)O .
OUT: 71.6

IN: If you can, please state the reported EC50 value of COc1nc(OCc2cccc(-c3cccc(COc4nc(OC)c(CNCC(=O)O)cc4Cl)c3C)c2C)c(Cl)cc1CNCC(=O)O .
OUT: 71.6
